Data origin, for the record: the supplement of paper PMC11208160

Item-by-item account of recombinant UMI read abundance (log10)
METHOD DESCRIPTION: recombinant UMI read abundance after kanamycin selection (control-corrected) (log10(CPM+1)); higher = more efficient recombination; extreme values may be limits of the assay; sequences stand for … in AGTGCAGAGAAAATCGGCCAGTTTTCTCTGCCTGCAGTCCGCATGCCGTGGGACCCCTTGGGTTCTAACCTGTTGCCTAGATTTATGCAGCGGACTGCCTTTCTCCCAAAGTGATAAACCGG…AGGTTGGTTTCACT; site = the 11-nt donor

{"ORDERED RESIDUES": "GTTGCGGCATGGACCGGTTTTCCCGGTAATCCGTATTTGCT (site CTTGCGGCTAG)", "OUTCOME MEASURE": "recombinant UMI read abundance (log10)", "VALUE REPORTED": 0.745}
{"ORDERED RESIDUES": "TCCAGCGCATGGACCGGTTTTCCCGGTAATCCGTATTTGCG (site TCCAGCGCTCG)", "OUTCOME MEASURE": "recombinant UMI read abundance (log10)", "VALUE REPORTED": 0.0428}
{"ORDERED RESIDUES": "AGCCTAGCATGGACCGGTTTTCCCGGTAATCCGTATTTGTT (site AGGCTAGCTAA)", "OUTCOME MEASURE": "recombinant UMI read abundance (log10)", "VALUE REPORTED": 0.00253}

May I ask what recombinant UMI read abundance (log10) has been recorded for GACGCTACATGGACCGGTTTTCCCGGTAATCCGTATTTGCA (site GACGCTACTTG) ?
1.36

###

METHOD DESCRIPTION: recombinant barcode read abundance after kanamycin selection (control-corrected) (log10(CPM+1)); higher = more efficient recombination; sequences stand for … in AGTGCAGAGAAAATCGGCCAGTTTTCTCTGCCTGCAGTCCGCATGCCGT…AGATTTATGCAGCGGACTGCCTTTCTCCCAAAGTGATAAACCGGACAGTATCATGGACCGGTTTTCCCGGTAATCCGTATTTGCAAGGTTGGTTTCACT; site = the 11-nt target
Item-by-item account of recombinant barcode read abundance (log10)
Number only, please.

# annotated cases, reported recombinant barcode read abundance (log10) shown
{"ORDERED RESIDUES": "GGACATTCTTGGGTTCTAACCTGTTGCAT (site GGACATTCTAT)", "VALUE REPORTED": 0.872}
{"ORDERED RESIDUES": "TACGTGTCTTGGGTTCTAACCTGTTGCTA (site TGCGTGTCTCA)", "VALUE REPORTED": 0.051}
{"ORDERED RESIDUES": "CTGGGGTCTTGGGTTCTAACCTGTTGCCT (site CTGGCGTCTAG)", "VALUE REPORTED": 0.36}
{"ORDERED RESIDUES": "TATGGGGCTTGGGTTCTAACCTGTTGCCT (site TATGTGGCTAG)", "VALUE REPORTED": 0.0518}
{"ORDERED RESIDUES": "CTACTTGCTTGGGTTCTAACCTGTTGCAA (site CTACTTGCTTT)", "VALUE REPORTED": 0.326}
{"ORDERED RESIDUES": "CCTGCTCCTTGGGTTCTAACCTGTTGCTT (site CCTACTCCTAG)", "VALUE REPORTED": 0.0276}
{"ORDERED RESIDUES": "GCCGAGTCTTGGGTTCTAACCTGTTGCTC (site GCCGAGTCTTA)", "VALUE REPORTED": 0.371}
{"ORDERED RESIDUES": "AAAGGGACTTGGGTTCTAACCTGTTGCCT (site AAAGGGACTAG)", "VALUE REPORTED": 2.08}

Attention now shifts to the item below.
May I ask what recombinant barcode read abundance (log10) has been recorded for AGATTCACTTGGGTTCTAACCTGTTGCCT (site AGATTGACTTG) ?
0.0824
